ASSAY NOTES: Tmax in Sprague-Dawley rat at 20 mg/kg, po measured upto 24 hrs in presence of 10 mg/kg encequidar by LC-MS/MS analysis
Format: ADME, organism-based
MEASUREMENT SETUP: in vivo
MEASUREMENT TYPE: Tmax (h)
Provide only the numeric value, understood in h.

Looking up CC(=O)O[C@H]1C(=O)[C@@]2(C)[C@H]([C@H](OC(=O)c3ccccc3)[C@]3(O)C[C@H](OC(=O)[C@H](O)[C@@H](NC(=O)c4ccccc4)c4ccccc4)C(C)=C1C3(C)C)[C@]1(OC(C)=O)CO[C@@H]1C[C@@H]2O , I found its Tmax recorded as 1

###

ASSAY NOTES: Oral bioavailability in Sprague-Dawley rat at 20 mg/kg measured upto 24 hrs by LC-MS/MS analysis
Type: ADME, organism-based
MEASUREMENT SETUP: in vivo
MEASUREMENT TYPE: bioavailability (%)
Give the quantity in %, number only.

The value of bioavailability measured for the molecule CC(=O)O[C@H]1C(=O)[C@@]2(C)[C@H]([C@H](OC(=O)c3ccccc3)[C@]3(O)C[C@H](OC(=O)[C@H](O)[C@@H](NC(=O)c4ccccc4)c4ccccc4)C(C)=C1C3(C)C)[C@]1(OC(C)=O)CO[C@@H]1C[C@@H]2O turned out to be 3.4

###

ASSAY NOTES: Aqueous solubility of compound at pH 3.8
Assay type: physicochemical
MEASUREMENT SETUP: aqueous solution
MEASUREMENT TYPE: solubility (µg/mL)
Numeric answer only, unit µg/mL assumed.

Quick note, solubility for COc1cc2c(cc1OC)CN(CCc1ccc(-n3nnc(-c4cc(OC)c(OC)cc4NC(=O)c4cc(=O)c5ccccc5o4)n3)cc1)CC2 landed at 0.219

###

ASSAY NOTES: Oral bioavailability in Sprague-Dawley rat at 10 mg/kg measured upto 48 hrs by LC-MS/MS analysis
Assay type: ADME, organism-based
MEASUREMENT SETUP: in vivo
MEASUREMENT TYPE: bioavailability (%)
Write it as a number; the unit % goes unstated.

Kindly note the recorded bioavailability for COc1cc2c(cc1OC)CN(CCc1ccc(-n3nnc(-c4cc(OC)c(OC)cc4NC(=O)c4cc(=O)c5ccccc5o4)n3)cc1)CC2 , which is 6.25

###

ASSAY NOTES: Cmax in Sprague-Dawley rat at 20 mg/kg, po measured upto 24 hrs by LC-MS/MS analysis
Type: ADME, organism-based
Parameters: route oral, dose 20 mg/kg, time <=24
MEASUREMENT SETUP: in vivo
MEASUREMENT TYPE: Cmax (µg/mL)
Write down the numeric answer in µg/mL and omit the unit.

So for CC(=O)O[C@H]1C(=O)[C@@]2(C)[C@H]([C@H](OC(=O)c3ccccc3)[C@]3(O)C[C@H](OC(=O)[C@H](O)[C@@H](NC(=O)c4ccccc4)c4ccccc4)C(C)=C1C3(C)C)[C@]1(OC(C)=O)CO[C@@H]1C[C@@H]2O [PACLITAXEL] , the logged Cmax turned out to be 0.127

###

ASSAY NOTES: Tmax in Sprague-Dawley rat at 6 mg/kg, iv measured upto 24 hrs by LC-MS/MS analysis
Type: ADME, organism-based
MEASUREMENT SETUP: in vivo
MEASUREMENT TYPE: Tmax (min)
Supply the numeric figure in min, leaving out any unit text.

Just so you know, measured Tmax for CC(=O)O[C@H]1C(=O)[C@@]2(C)[C@H]([C@H](OC(=O)c3ccccc3)[C@]3(O)C[C@H](OC(=O)[C@H](O)[C@@H](NC(=O)c4ccccc4)c4ccccc4)C(C)=C1C3(C)C)[C@]1(OC(C)=O)CO[C@@H]1C[C@@H]2O came out at 4.8

###

ASSAY NOTES: Ratio of drug concentration in BALB/c mouse kidney to plasma at 20 mg/kg, po measured upto 24 hrs in presence of 10 mg/kg encequidar by LC-MS/MS analysis
Assay type: ADME, organism-based
MEASUREMENT TYPE: Kp at 24 h

Kindly note the recorded Kp at 24 h for CC(=O)O[C@H]1C(=O)[C@@]2(C)[C@H]([C@H](OC(=O)c3ccccc3)[C@]3(O)C[C@H](OC(=O)[C@H](O)[C@@H](NC(=O)c4ccccc4)c4ccccc4)C(C)=C1C3(C)C)[C@]1(OC(C)=O)CO[C@@H]1C[C@@H]2O , which is > 1

###

ASSAY NOTES: AUClast in Beagle dog at 10 mg/kg, po measured upto 48 hrs by LC-MS/MS analysis
Format: ADME, organism-based, Canis lupus familiaris
Parameters: route oral, dose 10 mg/kg, time <=48
MEASUREMENT SETUP: in vivo
MEASUREMENT TYPE: AUC(0-t) at 48 h (ng·h/mL)
# unit: ng·h/mL | format: bare number

AUC(0-t) at 48 h in this record for COc1cc2c(cc1OC)CN(CCc1ccc(-n3nnc(-c4cc(OC)c(OC)cc4NC(=O)c4cc(=O)c5ccccc5o4)n3)cc1)CC2 : 724

###

ASSAY NOTES: Ratio of drug concentration in BALB/c mouse spleen to plasma at 20 mg/kg, po measured upto 24 hrs in presence of 10 mg/kg encequidar by LC-MS/MS analysis
Format: ADME, organism-based
MEASUREMENT TYPE: Kp at 24 h

Looking up CC(=O)O[C@H]1C(=O)[C@@]2(C)[C@H]([C@H](OC(=O)c3ccccc3)[C@]3(O)C[C@H](OC(=O)[C@H](O)[C@@H](NC(=O)c4ccccc4)c4ccccc4)C(C)=C1C3(C)C)[C@]1(OC(C)=O)CO[C@@H]1C[C@@H]2O , I found its Kp at 24 h recorded as > 1

###

EXPERIMENTAL TARGET: UniProt Q9UNQ0
Sequence (Q9UNQ0 whole entry): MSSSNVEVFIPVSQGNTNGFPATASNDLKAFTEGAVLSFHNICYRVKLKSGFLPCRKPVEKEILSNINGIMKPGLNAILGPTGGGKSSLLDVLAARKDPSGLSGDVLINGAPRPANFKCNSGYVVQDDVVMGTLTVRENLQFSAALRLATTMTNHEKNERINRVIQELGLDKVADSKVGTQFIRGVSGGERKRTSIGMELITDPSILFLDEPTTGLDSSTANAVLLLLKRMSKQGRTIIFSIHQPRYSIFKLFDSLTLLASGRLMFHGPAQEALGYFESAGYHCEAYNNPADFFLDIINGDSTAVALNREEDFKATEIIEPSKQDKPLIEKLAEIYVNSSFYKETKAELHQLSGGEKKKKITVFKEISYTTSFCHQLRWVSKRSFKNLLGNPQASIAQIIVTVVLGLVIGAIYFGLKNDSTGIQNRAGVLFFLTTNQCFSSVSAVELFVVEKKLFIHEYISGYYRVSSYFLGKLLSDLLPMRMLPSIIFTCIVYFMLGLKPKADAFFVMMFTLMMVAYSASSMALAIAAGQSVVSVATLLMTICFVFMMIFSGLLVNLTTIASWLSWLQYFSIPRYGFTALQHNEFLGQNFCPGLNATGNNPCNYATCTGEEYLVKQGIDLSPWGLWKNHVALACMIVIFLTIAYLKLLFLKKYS
ASSAY NOTES: Inhibition of sulfasalazine-stimulated BCRP ATP ase activity (unknown origin)
MEASUREMENT TYPE: pIC50
Scale explanation: pIC50 corresponds to minus log10 of a concentration expressed in moles per litre.

The compound listed as COc1cc2c(cc1OC)CN(CCc1ccc(NC(=O)c3cc(OC)c(OC)cc3NC(=O)c3cnc4ccccc4c3)cc1)CC2 shows pIC50 equal to 6.74

###

ASSAY NOTES: Tmax in Sprague-Dawley rat at 20 mg/kg, po measured upto 24 hrs by LC-MS/MS analysis
Type: ADME, organism-based
MEASUREMENT SETUP: in vivo
MEASUREMENT TYPE: Tmax (min)
Give just the number in min; leave the unit off.

Please fill in: Tmax reported for CC(=O)O[C@H]1C(=O)[C@@]2(C)[C@H]([C@H](OC(=O)c3ccccc3)[C@]3(O)C[C@H](OC(=O)[C@H](O)[C@@H](NC(=O)c4ccccc4)c4ccccc4)C(C)=C1C3(C)C)[C@]1(OC(C)=O)CO[C@@H]1C[C@@H]2O [PACLITAXEL] = 54

###

ASSAY NOTES: Ratio of drug concentration in BALB/c mouse liver to plasma at 20 mg/kg, po measured upto 24 hrs in presence of 10 mg/kg encequidar by LC-MS/MS analysis
Format: ADME, organism-based
MEASUREMENT TYPE: Kp at 24 h

// CC(=O)O[C@H]1C(=O)[C@@]2(C)[C@H]([C@H](OC(=O)c3ccccc3)[C@]3(O)C[C@H](OC(=O)[C@H](O)[C@@H](NC(=O)c4ccccc4)c4ccccc4)C(C)=C1C3(C)C)[C@]1(OC(C)=O)CO[C@@H]1C[C@@H]2O [PACLITAXEL] : Kp at 24 h value = > 1

###

ASSAY NOTES: Half life in Beagle dog at 3 mg/kg, iv measured upto 48 hrs by LC-MS/MS analysis
Type: ADME, organism-based, Canis lupus familiaris
MEASUREMENT SETUP: in vivo
MEASUREMENT TYPE: half-life (h)
Note: unit h is implicit; provide only the numeric part.

Form field half-life, entry COc1cc2c(cc1OC)CN(CCc1ccc(-n3nnc(-c4cc(OC)c(OC)cc4NC(=O)c4cc(=O)c5ccccc5o4)n3)cc1)CC2 : 16.9
